Listed here are compounds together with their documented pKi.
measurement-target: human recombinant 5-HT2C receptor (Homo sapiens (Human), UniProt P28335)
Sequence (P28335 whole entry, looked up): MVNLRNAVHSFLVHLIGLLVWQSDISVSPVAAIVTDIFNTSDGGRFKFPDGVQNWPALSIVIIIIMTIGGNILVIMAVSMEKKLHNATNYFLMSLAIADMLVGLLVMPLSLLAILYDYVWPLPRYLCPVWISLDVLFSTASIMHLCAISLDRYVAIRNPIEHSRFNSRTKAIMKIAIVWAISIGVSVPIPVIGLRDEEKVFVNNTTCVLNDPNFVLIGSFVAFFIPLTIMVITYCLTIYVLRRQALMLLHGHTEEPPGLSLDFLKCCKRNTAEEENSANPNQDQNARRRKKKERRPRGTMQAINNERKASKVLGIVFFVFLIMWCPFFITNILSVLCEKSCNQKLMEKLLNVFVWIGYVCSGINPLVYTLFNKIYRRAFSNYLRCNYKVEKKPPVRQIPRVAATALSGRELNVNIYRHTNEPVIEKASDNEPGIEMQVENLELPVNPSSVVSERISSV
experimental-protocol: biochemical
Assay type: binding
condition-details: human serotonin 5-HT2C receptor binding, [3H]-Mesulergine; read-out: h-5-HT2C Ki
pKi: −log10 of the molar value.

>  <compound>
CC(C)COc1ccc(CNC(=O)N(Cc2cn(C)c3cccnc23)C2CCN(C)CC2)cc1 [Compound I-074]

>  <pKi>
7.00 to 8.00

$$$$
>  <compound>
CCCOc1ccc(CNC(=O)N(Cc2ccn(C)n2)[C@H]2CCNC[C@H]2F)cc1 [Compound I-122]

>  <pKi>
7.00 to 8.00

$$$$
>  <compound>
CC(C)COc1ccc(CNC(=O)N(Cc2ccc(F)c3cc[nH]c23)C2CCN(C)CC2)cc1 [Compound I-081]

>  <pKi>
< 7.00

$$$$
>  <compound>
CC(C)COc1ccc(CNC(=O)N(Cc2ccn(C)c2)[C@@H]2CCN(C)C[C@@H]2F)cc1 (racemic) [Compound I-108]

>  <pKi>
> 8.00

$$$$
>  <compound>
Cc1cc(CN(C(=O)NCc2ccc(OCC(C)C)cc2)C2CCN(C)CC23CC3)nn1C (racemic) [Compound I-094]

>  <pKi>
> 8.00

$$$$
